Assay: Microsomal stability in mouse liver microsomes (MLM)
Format: in vitro ADME
Details: mouse, microsomes
Below, each entry is listed with its recorded Mouse liver microsomes, MLM t½.

Some molecules with known Mouse liver microsomes, MLM t½ results, for comparison:
CC(C)Oc1ccc(CC[C@@H](C)N2Cc3cc4c(cc3C2)OCO4)cc1OC(C)C :: 6 min
COc1cc(CCC(C)(C)N2Cc3ccc(F)cc3C2)ccc1OCCO :: 96 min
COc1cc(CC[C@@H](C)N2Cc3cc(Cl)c(Cl)cc3C2)ccc1O :: 21 min
COc1cc(CC[C@@H](C)N2Cc3cc4c(cc3C2)OCO4)ccc1OCCO :: 97 min

Ask: So what's the measured Mouse liver microsomes, MLM t½ for this one? "C[C@H](CCc1ccc(OC(=O)N(C)C)c(OC(F)(F)F)c1)N1Cc2ccc(F)cc2C1"
Result: 5 min

Ask: And the next one, "C[C@H](CCc1ccc(Cl)c(Cl)c1)N1Cc2cc3c(cc2C1)OCO3" ?
Result: 8 min

Ask: And the next one, "COc1cc(CC[C@@H](C)N2Cc3cccc(F)c3C2)ccc1O" ?
Result: 16 min

* * *

Below, each entry is listed with its recorded Mouse liver microsomes, MLM t½.
Assay: Microsomal stability in mouse liver microsomes (MLM)
Type: in vitro ADME
Settings: mouse, microsomes
Description: A first pharmacokinetic study was performed in microsomes of mice mouse liver microsomes, MLM) by a commercial contract research organization. The studies were performed according to Obach, R. S et al. (1997) J. Pharmacol. Exp. Ther., 283: 46-58, which is incorporated herein by reference.
Answer shape: numeric part, then the unit.

CC(C)(CCc1ccc(O)c(OC(F)(F)F)c1)N1Cc2cccc(F)c2C1 :: 12 min
CC(C)(CCc1ccc(O)c(OC(F)(F)F)c1)N1Cc2cccc(S(C)(=O)=O)c2C1 :: 39 min
CC(C)Oc1cc(CC[C@@H](C)N2Cc3cc4c(cc3C2)OCO4)ccc1O :: 4 min
COc1cc(CCC(C)(C)N2Cc3cccc(F)c3C2)ccc1O :: 21 min
CN(C)C(=O)c1cccc2c1CN(C(C)(C)CCc1ccc(O)c(OC(F)(F)F)c1)C2 :: 26 min
CC(C)COc1cc(CCC(C)(C)N2Cc3cccc(C(=O)N(C)C)c3C2)ccc1O :: 17 min
CC(C)(CCc1ccc(O)c(OC(F)(F)F)c1)N1Cc2c(F)ccc(F)c2C1 :: 34 min

Ask: So what's the measured Mouse liver microsomes, MLM t½ for this one? "CC(C)(C)Oc1cc(CCC(C)(C)N2Cc3ccc(S(C)(=O)=O)cc3C2)ccc1O"
Result: 45 min

* * *

Experiment: Microsomal stability in mouse liver microsomes (MLM)
Format: in vitro ADME
Conditions: mouse, microsomes
Method: A first pharmacokinetic study was performed in microsomes of mice mouse liver microsomes, MLM) by a commercial contract research organization. The studies were performed according to Obach, R. S et al. (1997) J. Pharmacol. Exp. Ther., 283: 46-58, which is incorporated herein by reference.
Below, each entry is listed with its recorded Mouse liver microsomes, MLM t½.
Number only, in min; omit the unit.

Some compounds with known Mouse liver microsomes, MLM t½ results, for comparison:
CC(C)(C)Oc1cc(CCC(C)(C)N2Cc3cccc(S(C)(=O)=O)c3C2)ccc1O :: 10
C[C@H](CCc1ccc(Cl)c(Cl)c1)N1Cc2cccc(F)c2C1 :: 12
COc1cc(CCC(C)(C)N2Cc3ccc(F)cc3C2)ccc1OC(=O)N(C)C :: 33
CC(C)Oc1cc(CC[C@@H](C)N2Cc3ccc(F)cc3C2)ccc1O :: 5

Please find the next compound below.
Ask: So what's the measured Mouse liver microsomes, MLM t½ for this one? "C[C@H](CCc1ccc(O)c(OC(F)(F)F)c1)N1Cc2cc3c(cc2C1)OCO3"
Result: 5

* * *

Experiment: Microsomal stability in mouse liver microsomes (MLM)
Type: in vitro ADME
Details: mouse, microsomes
Class membership depends on Mouse liver microsomes, MLM t½ alone; the intervals are low bracket (below 10 min), middle bracket (10 min to below 30 min), high bracket (30 min or more)

COc1cc(CCC(C)(C)N2Cc3cccc(C(=O)N4CCN(C)CC4)c3C2)ccc1O [compound 82] :: middle bracket

Ask: Which category does the recorded Mouse liver microsomes, MLM t½ put COc1cc(CC[C@@H](C)N2Cc3ccc(C(F)(F)F)cc3C2)ccc1O [compound 2] in?
Result: middle bracket

Ask: And the next one, CC(C)COc1cc(CCC(C)(C)N2Cc3cccc(C(=O)N4CCN(C)CC4)c3C2)ccc1O [compound 91] ?
Result: low bracket

Ask: And the next one, COC[C@H](CCc1ccc(Cl)c(Cl)c1)N1Cc2ccc(F)cc2C1 [compound 46] ?
Result: low bracket

Ask: And the next one, CC(C)(C)Oc1cc(CCC(C)(C)N2Cc3c(F)ccc(F)c3C2)ccc1O [compound 74] ?
Result: middle bracket

Ask: And the next one, C[C@H](CCc1ccc(O)c(OC(C)(C)C)c1)N1Cc2c(F)ccc(F)c2C1 [60A] ?
Result: low bracket

Ask: And the next one, COc1ccc2c(c1)CN([C@H](C)CCc1ccc(Cl)c(Cl)c1)C2.Cl [compound 15] ?
Result: middle bracket

Ask: And the next one, CC(C)Oc1cc(CC[C@@H](C)N2Cc3ccc(S(C)(=O)=O)cc3C2)ccc1O [compound 69] ?
Result: high bracket

Ask: And the next one, CC(C)COc1cc(CCC(C)(C)N2Cc3cccc(F)c3C2)ccc1O [compound 88] ?
Result: middle bracket

Ask: And the next one, C[C@H](CCc1ccc(Cl)c(Cl)c1)N1Cc2ccc(F)cc2C1.Cl [compound 12] ?
Result: middle bracket

Ask: And the next one, C[C@H](CCc1ccc(O)c(OC(C)(C)C)c1)N1Cc2ccc(S(C)(=O)=O)cc2C1 [compound 63] ?
Result: high bracket
